measurement-target: human FXR (Homo sapiens)
procedure-text: FXR-bla reporter gene assay, antagonist mode (CDCA-induced transactivation)
stated-conditions: Table S1, primary screening; 50 µM CDCA
FXR antagonist mode Efficacy values by entry
Write the answer as a number in %, unit excluded.

The examples below pair each entry with its known result.
{"molecule": "COC1=CC(=O)C[C@@H](C)[C@]12Oc1c(Cl)c(OC)cc(OC)c1C2=O", "reading-unit": "%", "FXR antagonist mode Efficacy": 42}
{"molecule": "COC(=O)C1=C(C)NC(C)=C(C(=O)OC)C1c1ccccc1[N+](=O)[O-]", "reading-unit": "%", "FXR antagonist mode Efficacy": 66}
{"molecule": "CC(=O)O[C@@]12CO[C@@H]1C[C@H](O)[C@@]1(C)C(=O)[C@H](O)C3=C(C)[C@@H](OC(=O)[C@H](O)[C@@H](NC(=O)OC(C)(C)C)c4ccccc4)C[C@@](O)([C@@H](OC(=O)c4ccccc4)[C@H]21)C3(C)C", "reading-unit": "%", "FXR antagonist mode Efficacy": 35}

Proceed to the following item.
Input: Field request: FXR antagonist mode Efficacy | item: COC(=O)C1=C(C)NC(C)=C(C(=O)OCCN(C)Cc2ccccc2)C1c1cccc([N+](=O)[O-])c1 (stereo not shown)
Output: 116

----------
Test system: FXR-UAS-bla HEK293T cells
procedure-text: Cell viability assay (CellTiter Glo) in the same well as FXR-bla
stated-conditions: Table S1, primary screening
readout-type: Cytotoxicity Efficacy (%)
Entry rule: numbers only, all in %.

Observe how each entry below is paired with its result.
{"compound": "CCOC(=O)C1=C(C)NC(C)=C(C(=O)OCC)C1c1ccccc1/C=C/C(=O)OC(C)(C)C", "measurement-target": "FXR-UAS-bla HEK293T cells", "endpoint-result": 56}
{"compound": "CC(C)C[C@H](NC(=O)[C@H](Cc1ccccc1)NC(=O)c1cnccn1)B(O)O", "measurement-target": "FXR-UAS-bla HEK293T cells", "endpoint-result": 57}
{"compound": "C[C@H]1O[C@@H](O[C@H]2[C@@H](O)C[C@H](O[C@H]3[C@@H](O)C[C@H](O[C@H]4CC[C@@]5(C)[C@H](CC[C@@H]6[C@@H]5C[C@@H](O)[C@]5(C)[C@@H](C7=CC(=O)OC7)CC[C@]65O)C4)O[C@@H]3C)O[C@@H]2C)C[C@H](O)[C@@H]1O", "measurement-target": "FXR-UAS-bla HEK293T cells", "endpoint-result": 35}
{"compound": "C[C@H](CCC(=O)O)[C@H]1CC[C@H]2[C@@H]3CC[C@@H]4C[C@H](O)CC[C@]4(C)[C@H]3CC[C@]12C", "measurement-target": "FXR-UAS-bla HEK293T cells", "endpoint-result": 65}
{"compound": "C[C@H](CCC(=O)O)[C@H]1CC[C@H]2[C@@H]3CC[C@@H]4C[C@H](O)CC[C@]4(C)[C@H]3C[C@H](O)[C@]12C", "measurement-target": "FXR-UAS-bla HEK293T cells", "endpoint-result": 73}
{"compound": "COC(=O)C1=C(C)NC(C)=C(C(=O)OCCN(C)Cc2ccccc2)C1c1cccc([N+](=O)[O-])c1 (stereo not drawn)", "measurement-target": "FXR-UAS-bla HEK293T cells", "endpoint-result": 125}
{"compound": "C[C@H](CCC(=O)O)[C@H]1CC[C@H]2[C@@H]3[C@H](O)C[C@@H]4C[C@H](O)CC[C@]4(C)[C@H]3CC[C@]12C", "measurement-target": "FXR-UAS-bla HEK293T cells", "endpoint-result": 50}
{"compound": "C#C[C@]1(O)CC[C@H]2[C@@H]3CCc4cc(O)ccc4[C@H]3CC[C@@]21C", "measurement-target": "FXR-UAS-bla HEK293T cells", "endpoint-result": 36}

Continue with the next compound.
Input: Need Cytotoxicity Efficacy, item `CO[C@H]1C[C@H](O[C@H]2[C@H](C)O[C@@H](O[C@@H]3/C(C)=C/C[C@@H]4C[C@@H](C[C@]5(C=C[C@H](C)[C@@H](C6CCCCC6)O5)O4)OC(=O)[C@@H]4C=C(C)[C@@H](O)[C@H]5OC/C(=C\C=C\[C@@H]3C)[C@]54O)C[C@@H]2OC)O[C@@H](C)[C@@H]1O`
Output: 116

----------
procedure-text: Cell viability assay (CellTiter Glo) in the same well as FXR-bla
stated-conditions: human, FXR-UAS-bla HEK293T cells
IC50 at 16 h overview
Answer in µM, number only, no unit symbol.

Answered cases to consult:
{"compound": "C[C@H](CCC(=O)O)[C@H]1CC[C@H]2[C@@H]3CC[C@@H]4C[C@H](O)CC[C@]4(C)[C@H]3C[C@H](O)[C@]12C", "reading-unit": "µM", "IC50 at 16 h": 66.5}
{"compound": "C[C@H](CCC(=O)O)[C@H]1CC[C@H]2[C@@H]3CC[C@@H]4C[C@H](O)CC[C@]4(C)[C@H]3CC[C@]12C", "reading-unit": "µM", "IC50 at 16 h": 43.8}
{"compound": "COC(=O)C1=C(C)NC(C)=C(C(=O)OCCN(C)Cc2ccccc2)C1c1cccc([N+](=O)[O-])c1 (stereo not shown)", "reading-unit": "µM", "IC50 at 16 h": 31.9}

Field: next compound
Input: Which measured IC50 at 16 h value corresponds to COC(=O)C1=C(C)NC(C)=C(C(=O)OCCN2CCN(C(c3ccccc3)c3ccccc3)CC2)C1c1cccc([N+](=O)[O-])c1 (stereo not shown) ?
Output: 18.2

----------
measurement-target: UniProt:Q96RI1
procedure-text: FXR-bla reporter gene assay, antagonist mode (CDCA-induced transactivation)
stated-conditions: FXR-bla, antagonist IC50
Measured IC50 accompanies every entry in the list below.
Provide the reading as a plain figure in µM.

{"chem-smiles": "COC(=O)Nc1nc2ccc(C(=O)c3cccs3)cc2[nH]1", "IC50, µM": 0.29}

Input: Query: IC50; subject: `COc1cc2c(c(OC)c1OC)-c1ccc(OC)c(=O)cc1[C@@H](NC(C)=O)CC2`
Output: 0.03

Input: Then `O=C1c2ccccc2C(=O)C1C(=O)C(c1ccccc1)c1ccccc1` ?
Output: 15

----------
measurement-target: human FXR (Homo sapiens, UniProt Q96RI1)
Sequence (Q96RI1 with tags, fused parts or gaps limits assumed): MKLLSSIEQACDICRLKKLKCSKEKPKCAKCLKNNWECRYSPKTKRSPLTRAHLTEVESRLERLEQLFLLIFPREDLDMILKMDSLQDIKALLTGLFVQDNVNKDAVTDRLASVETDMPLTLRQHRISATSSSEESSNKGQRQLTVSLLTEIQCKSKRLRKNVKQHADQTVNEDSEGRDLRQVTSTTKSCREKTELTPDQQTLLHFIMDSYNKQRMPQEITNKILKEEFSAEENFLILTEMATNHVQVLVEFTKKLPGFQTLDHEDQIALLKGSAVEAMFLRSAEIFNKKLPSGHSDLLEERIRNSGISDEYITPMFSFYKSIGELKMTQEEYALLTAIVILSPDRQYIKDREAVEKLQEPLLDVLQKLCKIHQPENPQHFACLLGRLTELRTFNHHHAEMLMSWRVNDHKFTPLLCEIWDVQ
procedure-text: FXR-bla reporter gene assay, agonist mode (qHTS)
stated-conditions: Table S3
This listing pairs compounds with measured FXR agonist Efficacy.

Worked cases, FXR agonist Efficacy given:
{"compound": "COC(=O)C1=C(C)NC(C)=C(C(=O)OCCN(C)Cc2ccccc2)C1c1cccc([N+](=O)[O-])c1 (stereo not shown)", "readout-type": "FXR agonist Efficacy", "endpoint-result": "33 ± 7%"}
{"compound": "CO[C@H]1C[C@H](O[C@H]2[C@H](C)O[C@@H](O[C@@H]3/C(C)=C/C[C@@H]4C[C@@H](C[C@]5(C=C[C@H](C)[C@@H](C6CCCCC6)O5)O4)OC(=O)[C@@H]4C=C(C)[C@@H](O)[C@H]5OC/C(=C\\C=C\\[C@@H]3C)[C@]54O)C[C@@H]2OC)O[C@@H](C)[C@@H]1O", "readout-type": "FXR agonist Efficacy", "endpoint-result": "62 ± 9%"}
{"compound": "CCOc1ccc2nc3cc(N)ccc3c(N)c2c1", "readout-type": "FXR agonist Efficacy", "endpoint-result": "31 ± 11%"}

Input: What does the record list as FXR agonist Efficacy for COCCOC(=O)C1=C(C)NC(C)=C(C(=O)OC/C=C/c2ccccc2)C1c1cccc([N+](=O)[O-])c1 (stereo not shown) ?
Output: 64 ± 7%

----------
measurement-target: human FXR (Homo sapiens, UniProt Q96RI1)
procedure-text: FXR-bla reporter gene assay, antagonist mode (CDCA-induced transactivation)
readout-type: FXR antagonist mode Efficacy

Would you please look over these solved cases?
{"compound": "CC1(C)C(/C=C(\\Cl)C(F)(F)F)C1C(=O)OC(C#N)c1cccc(Oc2ccccc2)c1 (stereo not shown) [Cyhalothrin]", "endpoint-result": "50 ± 15"}
{"compound": "CCCCc1ccc2[nH]c(NC(=O)OC)nc2c1 [Parbendazole]", "endpoint-result": "43 ± 3%"}
{"compound": "CCC[S+]([O-])c1ccc2[nH]c(NC(=O)OC)nc2c1 (stereo not shown) [Albendazole oxide]", "endpoint-result": "35 ± 16%"}

Note: attention shifts to another entry.
Input: Using the record for O=C(Nc1ccccc1)c1ccccc1SSc1ccccc1C(=O)Nc1ccccc1 [DTBBA, 2,2-Dithiobisbenzanilide] , report its FXR antagonist mode Efficacy.
Output: 51 ± 17

----------
Tested on: FXR-UAS-bla HEK293T cells
procedure-text: Cell viability assay (CellTiter Glo) in the same well as FXR-bla
stated-conditions: Homo sapiens, HEK-293T, read-out: Cell viability IC50
readout-type: pIC50
# log scale: pIC50 equals minus log10 of the concentration in mol/L

{"compound": "CC1=C2C[C@H]3[C@@H](CC=C4C[C@@H](O)CC[C@@]43C)[C@@H]2CC[C@]12O[C@@H]1C[C@H](C)CN[C@H]1[C@H]2C [Cyclopamine]", "pIC50": 4.76}

Then this compound:
Input: Name the recorded pIC50 for CCc1c(C(=O)NN2CCCCC2)nn(-c2ccc(Cl)cc2Cl)c1-c1ccc(Br)cc1 [Surinabant] .
Output: 4.77
